Each entry below lists one item and its recorded half-life at 0.5 µM value.
test: in vitro; details: human, microsomes
Description: Metabolic stability in human liver microsomes assessed as half life at 500 nM

> print(dat)
                           molecular.string  result.value
1  CC(=O)N[C@@H]1CC[C@@]2(C)[C@H](CC[C@H]3[C@@H]4CC[C@@]5(CC(C)=C4C[C@@H]32)O[C@@H]2C[C@H](C)CN[C@H]2[C@H]5C)C1        1.08 h
2  CC1=C2C[C@H]3[C@@H](CC[C@@H]4Cc5nocc5C[C@@]43C)[C@@H]2CC[C@@]2(C1)O[C@@H]1C[C@H](C)CN[C@H]1[C@H]2C       0.133 h

Here's the next entry for you.
[in] In one line, give reported half-life at 0.5 µM of the entry `CC1=C2C[C@H]3[C@@H](CC[C@@H]4CNC(=O)CC[C@@]43C)[C@@H]2CC[C@@]2(C1)O[C@@H]1C[C@H](C)CN[C@H]1[C@H]2C` .
[out] 1.08 h
